The values you see were collected from the DeepSol protein solubility set.

experiment: soluble on expression in E. coli; label from the status in PepcDB or PDB records

input-sequence | soluble on expression in E. coli
MSLENVTMGFWYVSPRRGPHRTTRQISAGTWEEVRPNYTTPVADAMDRLMKTTPEDIAGRLLLLHGPPGTGKTSALRTLARSWRDWCQVDCVLDPERLFSDVGYLMDIAIGEEDGTGKGRWRLLLLEDCDELIRGEAKHTAGQALSRLLNLTDGLLGQGRNVLVGVTTNEDLERLHPAVVRPGRCLARIEVGPLTRREAVNWLGTEEGVGREGATLAELYALRRGTSPTSLPEPREGAEGHHHHHH | soluble
SHSSSRASFTTRGDIRRQVEGFSASGERNKDTVVDLSTFFAERGYSNNQAPTKYWEEKLVTIGNVVVPKWVPVKERNSSNKQKEGEDEVFIGFEAIYYPEQPPERQPITLYQEENKVEEEEQSRE | soluble

====

assay: soluble on expression in E. coli; label from the status in PepcDB or PDB records
measured-quantity: soluble on expression in E. coli

Some sequences with known soluble on expression in E. coli results, for comparison:
input-sequence | result
GMSEAPHLTFDLDTPGVSTGHLVVPKGADCEALSLPVFSCNRGEGPSLLITGGNHGNELQGPILARRLVKWLPEAQRCGRIIIVPEINPLAVQAWTRNTPIDGKNLNRVFPGRSDGSVSERIADAISRLLLPVVDTVLDLHSFGPTWDCAPSIISHPIADIDQMTKTVSISKAFKLPVTLLWEHNETDGMFDTLVHRQGKTFICTEFGGGVVSAEALTIYEAGVRNGLIALGLVKGKAEYPTFRQQKTGQTLETTSSDQLKSPSPGIFEPRCSVMDEVEQGDVVGVLHPMGSLSAASIDIRAQSKSTVFAIRSAMYVQGNEEVAILARPLAR | soluble
MPQPEQLPGPNADIWNWQLQGLCRGMDSSMFFHPDGERGRARTQREQRAKEMCRRCPVIEACRSHALEVGEPYGVWGGLSESERDLLLKGTMGRTRGIRRTA | not soluble
MKSMPTISRIQRIKEYLSKRKLSQRRKVGVLVDGPNMLRKEFNINLKEIREILSEYGDIKIAKVFLNQYATEKLVEAIENQGFEPIVTSGDVDVRMAVEAMELIYNDSIDAVALVTRDADFKAVLMKAMEMGKETIIIGAEPGFSTALKNSADIAIVLNEDEEKEKGDADEEEIIEV | not soluble
MGEETINSTQNKTRTKTTRPKAVYLWTVSDVLKWYRRHCGEYTQYEQLFAQHDITGRALLRITDSSLQRMGVTDNRDREAIWREIVKQRLKTDIMEIRDMERLNIY | soluble
MLTDQEKIDLVNALDFVVIEPHTQSIYVHNDEKTNGVLAKVLHTISVDEYIESFKKGSLIDIFPAAMQEAGAEGFKDGQFVIMPKKFYVDQCYAMSKEIERLTNLNNLHNIKPNTYQGLIHLEHHHHHH | soluble

Entry under test: MELELDDDVFFADISKQLNLLITDEDEQNPISLSSSVSFQGLFRGNYQTSATPYMMYNEQINYNVIRESKGTGVFIPRSSQPRRKHNHHPHQKKQGRFIGSFIPKQQFPHHGHDNNLTTLNNNNQESITFHHASTNPRRTYRDAASLFT . Its soluble on expression in E. coli was not soluble

For AHHHHHHGSSIKIELFGITFENPLILASGVVDMTPELLRRAHKEGAGGVVTKSIGIEPRKGYDNPTVVEVPCGLINAMGLPNPGWKAFLEEFEKESFDFPVIVSIFGGNPEEFAFLAEKLERVGDAFELNLSCPHAKGYGLEIGQDPENVYRVVKAVKDVTDKPVIAKLTPNTSDITKLGLAAEKAEADGVSAINTLKAIAIDIYAKRPILSNKFGGYSGPGIKPIALRAVYDLASKLDIPIIGIGGITTWQDAVEFLLAGASAVQIGTAVYLKGFSVFREIAEGIRKYLEEEGFSSVKEIIGLAQKV the sequence record lists soluble on expression in E. coli as soluble

Lab note: MGSSHHHHHHGGTGENLYFQGGSGQQQPRPVVAQYAYIELLPLRYTGPAPPPAPACMDPTPDEQYRRGVAEKRAALKQKEARRQMSSSGSGMLASLKSAVSQAVMTMEKGAADVSTRTESQVRQLEYQYDCDRFNLHFHELAENGEVLLADYRCSAMHSGLRVNGHVQITPHYLCFLAETTSSIAKTTDAVMGVFVAARHPTSANDEPRNRPVGIKQVIALADIVSIQPSVVLESIGGQAPFFMLLPAPTVRPTALQLYTQDSKLYQFMNFESLVSRATVALNDVVKGTALDQAYNYLDHAWRDTVNLRSKDV gave soluble on expression in E. coli of not soluble

====

assay: soluble on expression in E. coli; label from the status in PepcDB or PDB records
measured-quantity: soluble on expression in E. coli

Solved cases below.
input-sequence | soluble on expression in E. coli
TPNKEDYLKCLYELGTRHNKITNKEIAQLMQVSPPAVTEMMKKLLAEELLIKDKKAGYLLTDLGLKLVSDLYRKHRLIEVFLVHHLGYTTEEIHEEAEVLEHTVSDHFVERLDQLLDYPKACPHGGTIPAKGELLVEKHKLTLEEAKEKGDYILARVHDNFDLLTYLERNGLQVGKTIRFLGYDDFSHLYSLEVDGQEIQLAQPIAQQIYVEKI | soluble
MTNQQDYTQDNDKLYRYLFQHRAVRGEWVRLNKTFTDTLNTHQYPKAVQDLLGEMMVATNLLTATLKFAGNITVQIQGDGPLRLALVNGNDQQQIRALARVDGNITENMSLHNMIGKGVLVITIAPKEGERYQGVISLDKPTITECLEDYFVRSEQLQTQLIIRTGEYEGKPVAAGMLLQIMPDGSGTPEDFEHLTTLAATVKDEELFGLPAEELLYRLYHEETVNLYPAQDVQFFCGCSAERSSSALLLISDEEIDEILAEHKGRIDMQCECCGTHYFFNKEAIEKLKSTRV | not soluble
MGHHHHHHSHMKNLVLKIISGSFPPVSLHYSYDLRSLVSQLFKRNPRDRPSVNSILEKGFIAKRIEKFLSPQLIAEEFCLKTFSKFGSQPIPAKRPASGQNSISVMPAQKITKPAAKYGIPLAYKKYGDKKLHEKKPLQKHKQAHQTPEKRVNTGEERRKISEEAARKRRLEFIEKEKKQKDQIISLMKAEQMKRQEKERLERINRAREQGWRNVLSAGGSGEVKAPFLGSGGTIAPSSFSSRGQYEHYHAIFDQMQQQRAEDNEAKWKREIYGRGLPERGILPGVRPGFPYGAAGHHHFPDADDIRKTLKRLKAVSKQANANRLDCDDP | not soluble
MAFESSKSYYSIGEVSRISGIPAYLLRYWEDYFSELAPARDTRGNRRYTNRDIAMVLNIKDLVYEKGYKLNKASQMVKGGKVDHDGADHKTNEILKLQKQLLREQKEYEITGERRRMLLLEIKDEIEDILELLG | not soluble
MAFICELDEQWSYVGSKARQHWLGYAYNTKTGGVLAYTFGPRTDQTCRELLALLTPFNIGMLTSDDWGSYGREVPKNKHLTGKIFTQRIERNNLTLRTRIKRLGRKTICFSRSVEIHEKVIGAFIEKHMFYLEHHHHHH | soluble

soluble on expression in E. coli measured on MNTEICSILERQARIFNVQKYSLYDGPGIRTLIFFKGCPLRCKWCSNPEGLERKYQVMYMEDSCIHCGNCIPVCPVNIHSFANRDGETVPTHYEPPKHTINRNIDCVGCRKCETICPKKALSIAGKDLKISEVLEIIQQDALFYLSSGGGVTLGGGEVTAQPEFATNLLMECQRMGINTAIETCGYAKLDTLLMIAQFTDLFLYDLKHIDPERHYELTGVRNERILDNLTELIHRGFNIKIRMPLIRGMNDSQDTIRRTMEFLQPFSSCKNFQGIDLLPYHKLGINKYKQLDMNYTITEDLSFKAEELDEIARIIGGYDLRAAVIRH = not soluble

So, MGSDKIHHHHHHMRRGGTAFSSKCKICGKAAPFSLPVCPECSKKDAALEIATSLHPPLYEKRVEGCNLCSNKCSGIALCGKPEYGKLTYYEDPLPTNCCNAWFCNGSKLTGTNLAVFYYGCNFDCLYCQNWTHKYFEDVRTVSVDELLRAAKNFRVRCVCHFGGSPEPQLPFALKFSRKALEFKEDLMICWEWNGAGNTSLALKAAELSSRSGGTVKFDLKAWNPNLHVLLTGRDNERVKDNFERIYDKHGEVLSATTLLVPYYVDEEEVEGIARFISSFSTEIPYSLLVFHPDYRMSDFPVTPVQQVKRCYKAAKKHLKNVNIGNLHLLGL ? Its soluble on expression in E. coli was not soluble

The sequence listed as HFASTRSFLDTVKLDHAIWKNNIYRLLQSGSFGETVNSHSECRLGQWYYRGDGKAYSQLRSYAQLEAPHKGVHDSGRDAMNHAKSGNMAGMVTSINSMEDTSEQVVIHIDRLMDEIIAN has a reported soluble on expression in E. coli of not soluble

According to the records, this sequence MDRLKAMQVFVEVADRGSLSAAAMHLGMSRAMVSRYLAELEAWVGVRLLHRTTRRLSLTPAGSETLPRCRRMLEMVGDMREAVAAPDAEPRGLLRVTAAMSFGGAQLAEAVAEFVRRHPAASIDLLLVDRAVNLVEERVDLAVRITNDLDPNLIGRRLADCRSVVCAAPQYLQQHGAPARAEDLSLHNCLTHSYFGRSLWRFERAGEPVEVPVGGNITANETDVLMRAALAGAGIVMLPTYLAAGQIAAGTLRPLLPDCAPPVLGIHGVYVSRKQMPLILRTMLDFLAERFNPAPWDAALEGR displays soluble on expression in E. coli of not soluble

GET /value?item= MAHHHHHHMLKSSIVLLRRGKPRPRAGMFPEKYRRVPTLLKPQQGGQQYFNEFLIRSANDALEAQQQGYGSAFRVGGSGAARILADGNATAADGIHDGEISSVHPRLPQADIDGVLQRSRAETIQAELKQLVAQDGFISQRGFNERLWYEQEHHRLRTHGDGVEASPSEVAATAAASSSTAEAVSATGEGRAVPERILGDDYFQSKFGYSLLKGRSPDASAVADNVKAYAQLDLWGEMPMYSRDFVFLYLVSRRRNTYAVAYDYDGKRLLPTYTAGNRGLKGGDRGFRGDGSTDNGHQVTSMYLNDLLPKIREARAASGRPLGRGEKIDLVVRVMGFYNGRQGAVRAVQDRSADFRVRYLEDVTPFPLNGPKMPRGVFR &field=soluble on expression in E. coli returns not soluble

Notebook: MLITERIYVLEDVDVQAFLGVNNSNLMLLRTLFPKLRLVAHHNVLKIMGDSRETDRFLEVLEPMVAYCREYNLLPEDVILRIAQGAKLPADDVPKHLILHGTGGKSIIARGDNQQKLVEAFEANDLVFAIGPAGTGKTFVAISLAVRALKSKQVRRIILSRPAVEAGEKLGFLPGEMKDKLDPYLQPLYDALEEMIPAVKLKEYIENNIIQIAPLAYMRGRTLNDAVVILDEAQNTTELQMKMFLTRLGANAKMIVTGDITQTDLPRGVHSGLRQALNILQGTRGIGYIAFQRADIVRHPLVQRVVDAYDRYDAERKKEAEAAAVVAQTI , soluble on expression in E. coli read as not soluble
